- System tested: AIP TPR-domain R304A mutant (Homo sapiens, UniProt O00170, R304A)
- Construct: The TPR domain (residues 166–330) of human AIP; His tag (PreScission cleavable) (cleaved yes); made in house
- Sequence (O00170 166-330 R304A): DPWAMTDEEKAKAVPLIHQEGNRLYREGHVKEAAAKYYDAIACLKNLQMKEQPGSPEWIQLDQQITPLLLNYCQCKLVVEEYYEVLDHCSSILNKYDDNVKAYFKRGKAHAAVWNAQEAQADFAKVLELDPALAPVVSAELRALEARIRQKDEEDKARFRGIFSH
- Procedure text: Isothermal titration calorimetry, R304A AIP TPR-domain
- Type: binding
- Assay context: ITC, 20 mM Tris pH 7.5, 5 mM NaCl, 30°C, peptide 350-600 µM injected into 30 µM TPR-domain
Where no end group is shown, it is not given here.
Outcome measure: pKd
# log scale: pKd equals minus log10 of the concentration in mol/L

# pKd of AQSLAEDDVE [AQSLAEDDVE] = 4.78
